Cited source: the CheMixHub viscosity set

# ASSAY CONTEXT: 313.15 K; 101 kPa
Below: a set of entries, each annotated with reported viscosity.
READOUT LABEL: viscosity (mPa·s)

{"SMILES STRUCTURE": "CC1=CCC(=C(C)C)CC1", "RECORDED RESULT": 0.884}
{"SMILES STRUCTURE": "COC(C)(C)C", "RECORDED RESULT": 0.321}
{"SMILES STRUCTURE": "CCCCCC(=O)O.CCCCCC(=O)[O-].CC[NH+](CC)CCO", "RECORDED RESULT": 31}
{"SMILES STRUCTURE": "OCCCCCO", "RECORDED RESULT": 45.63}
